The values you see were collected from patent US20180230200A1.

biological target: gH/gL/UL128/UL130/UL131A pentamer complex (PC) of HCMV strain TB40/E virus (human cytomegalovirus strain TB40/E); test: cell-based or functional assay
Examples of binders with documented IC50, inhibition of TB40/E cell-to-cell spread in ARPE-19 follow.
Kindly answer with a numeric value in µg/mL, unit omitted.

binder	measured
54E11 (antibody, V domains shown, also called NAb 54E11) VH: QIQLVQSGPELKKPGETVKISCKASGYTFTSYGMNWVKQAPGKGLKWMGWINTYTGEPTYADDFKGRFAFSLETSASTAYLQINNLKNEDTATYFCAREHYYGINPLLGCWGQGTTLTVSS VL: DIQMTQTTSSLSASLGDRVTISCSASQGISNYLNWYQQKPDGTVKLLIYDTSSLHSGVPSRFSGSGSGTDYSLTISNLEPEDIATYYCQQYSKLPYTFGGGTKLEIK	17

Sample 12E2 (antibody, V domains shown, also called NAb 12E2) VH: EVKLVESGGGLVQPGGSLKLSCATSGFTFSDYYMFWVRQTPEKKLEWVAYISNGGGSTYYPDTVKGRFTISRDNDKNTLYLQMSRLKSDDTALYYCVRPKRDFQYLYAMDYWGQGTSVTVSS VL: DIVLTQSPASLAVSLGQRATISCRASKSVSTSGYSYMHWYQQKPGQSPKLLIYLASNLESGVPARFSGSGSGTDFTLNIHPVEDEDAATYYCQHSRELPWTFGGGTKLEIK — what was its IC50, inhibition of TB40/E cell-to-cell spread in ARPE-19? 15
